Target: UniProtKB O14842
Experiment: FLIPR assay, agonist-induced calcium mobilization
Format: cell-based
Parameters: expressed in transfected cells
Details: GPR40/CHO NFAT BLA cells
measurementKind: EC50 (nM)

Consider the worked cases shown below.
                                   compound  unitannotation  valuemeasured
0  O=C(O)[C@H]1[C@@H]2Cc3cc(OCc4cc5c(cc4F)C(F)(F)CC5c4ccccc4C(F)(F)F)ncc3[C@@H]21 (single isomer, unassigned) [Example 69]              nM           1.51
1  O=C(O)[C@H]1[C@@H]2Cc3cc(OCc4ccc5c(c4)C(c4ccccc4C(F)(F)F)CC5c4ccccc4)ncc3[C@@H]21 (stereo partly drawn) [Example 18]              nM           13.2
2  CC1(C)CC(c2ccc(OCCCS(C)(=O)=O)cc2C(F)(F)F)c2cc(COc3cc4c(cn3)[C@H]3[C@@H](C4)[C@@H]3C(=O)O)c(F)cc21 (stereo partly drawn)              nM            6.9
3  Cn1cnc2c([C@H]3CC(C)(C)c4ccc(COc5cc6c(cn5)[C@H]5[C@@H](C6)[C@@H]5C(=O)O)cc43)cccc21              nM           13.3

(1) CC1(C)CNC(c2ccccc2C(F)(F)F)c2c1ccc(COc1cc3c(cn1)[C@H]1[C@@H](C3)[C@@H]1C(=O)O)c2F (stereo partly drawn)
(2) O=C(O)[C@H]1[C@@H]2Cc3cc(OCc4ccc5c(c4)C(c4ccccc4C(F)(F)F)CC54CCC4)ncc3[C@@H]21 (stereo partly drawn)
Input line: Please tell me which of the two, 1 or 2 , has the higher reported EC50 value. Write down the label of the entry you select.
Output line: 2
(2: 22.9 nM, 1: 6.75 nM)

====

Target: Human GPR40 (Homo sapiens, UniProt O14842)
Sequence (O14842 whole entry): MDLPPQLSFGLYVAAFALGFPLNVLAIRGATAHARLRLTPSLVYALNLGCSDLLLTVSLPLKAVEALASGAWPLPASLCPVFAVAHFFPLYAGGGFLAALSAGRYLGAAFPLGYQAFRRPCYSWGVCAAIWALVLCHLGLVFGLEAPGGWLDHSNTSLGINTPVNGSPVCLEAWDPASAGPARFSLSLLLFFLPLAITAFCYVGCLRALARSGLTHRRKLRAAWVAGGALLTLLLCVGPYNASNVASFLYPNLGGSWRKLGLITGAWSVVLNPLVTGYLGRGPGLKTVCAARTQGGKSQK
Experiment: Inositol Phosphate Turnover (IP1) Assay
Format: cell-based
Parameters: expressed in transfected cells; host or cells: HEK cells (stably expressing the aequorin reporter)
Conditions: HEK cells stably expressing human GPR40, CisBio IP-One kit
measurementKind: EC50 (nM)

molecule	unitAnnotation	EC50
CC1=C(c2ccccc2C(F)(F)F)c2cc(COc3cc4c(cn3)[C@H]3[C@@H](C4)[C@@H]3C(=O)O)ccc2CC1 [Example 47]	nM	236
CC1(C)CCN(c2ccccc2C(F)(F)F)c2cc(COc3cc4c(cn3)[C@H]3[C@@H](C4)[C@@H]3C(=O)O)c(F)cc21 [Example 53]	nM	39.2
O=C(O)[C@H]1[C@@H]2Cc3cc(OCc4ccc5c(c4)N(c4ccccc4)CCO5)ncc3[C@@H]21 [Example 61]	nM	653
CC1(c2ccccc2C(F)(F)F)OCc2ccc(COc3cc4c(cn3)[C@H]3[C@@H](C4)[C@@H]3C(=O)O)cc21 (stereo partly drawn) [Example 40]	nM	431
CC1(C)CC(c2ccccc2S(C)(=O)=O)c2cc(COc3cc4c(cn3)[C@H]3[C@@H](C4)[C@@H]3C(=O)O)ccc21 (stereo partly drawn) [Example 13]	nM	40.6
CC1(C)CC(c2ccc(OCCCS(C)(=O)=O)cc2C(F)(F)F)c2cc(COc3cc4c(cn3)[C@H]3[C@@H](C4)[C@@H]3C(=O)O)c(F)cc21 (stereo partly drawn) [Example 28]	nM	41.2

====

Target: Human GPR40 (Homo sapiens, UniProt O14842)
Assay: Inositol Phosphate Turnover (IP1) Assay
Assay type: cell-based
Design: expressed in transfected cells; host or cells: HEK cells (stably expressing the aequorin reporter)
Details: HEK cells stably expressing human GPR40, CisBio IP-One kit
Procedure: Human and mouse GPR40 stable cell-lines were generated in CHO cells stably expressing NFAT BLA (Beta-lactamase). A human GPR40 stable cell-line was generated in HER cells stably expressing the aequorin expressing reporter. […] Measurement of Inositol Phosphate Turnover (IP1) is performed using the CisBio IP-One kit (Part number 62IPAPEB). […] The plates are then read in a Perkin Elmer EnVision or equivalent reader able to measure FRET. […]
pEC50: −log10 of the molar value.
measurementKind: pEC50

Consider the worked cases shown below.
compound	pEC50
O=C(O)[C@H]1[C@@H]2Cc3cc(OCc4ccc5c(Br)cn(-c6ccccc6C(F)(F)F)c5c4)ncc3[C@@H]21	7.32
COc1ccc(F)c(C2CC(C)(C)c3cc(F)c(COc4cc5c(cn4)[C@H]4[C@@H](C5)[C@@H]4C(=O)O)cc32)c1 (stereo partly drawn)	6.65

(I) CC1(C)CNC(c2ccccc2C(F)(F)F)c2c1ccc(COc1cc3c(cn1)[C@H]1[C@@H](C3)[C@@H]1C(=O)O)c2F (stereo partly drawn)
(II) O=C(O)[C@H]1[C@@H]2Cc3cc(OCc4cc5c(-c6ccccc6C(F)(F)F)cn(-c6ccccc6)c5cc4F)ncc3[C@@H]21
(III) CC1(C)CN(c2ccccc2C(F)(F)F)c2cc(COc3cc4c(cn3)[C@H]3[C@@H](C4)[C@@H]3C(=O)O)c(F)cc21
(IV) O=C(O)[C@H]1[C@@H]2Cc3cc(OCc4cc5c(cc4F)C(n4cccn4)CC5c4ccccc4C(F)(F)F)ncc3[C@@H]21 (single isomer, unassigned) [Example 58]
Input line: Ordering criterion: pEC50; begin with the maximum. Labels, ranked as asked.
Output line: I, III, II, IV

====

Biological target: Human GPR40 (Homo sapiens)
Experiment: Inositol Phosphate Turnover (IP1) Assay
Format: cell-based
Set-up: expressed in transfected cells; host or cells: HEK cells (stably expressing the aequorin reporter)
Conditions: HEK cells stably expressing human GPR40, CisBio IP-One kit
measurementKind: EC50 (nM)

Consider the worked cases shown below.
>>> df
                                   compound  measurementkind  unitannotation  valuemeasured
0  CC1(C)C=C(c2ccccc2C(F)(F)F)c2cc(COc3cc4c(cn3)[C@H]3[C@@H](C4)[C@@H]3C(=O)O)ccc21 [Example 4]             EC50              nM             18
1  O=C(O)[C@H]1[C@@H]2Cc3cc(OCc4cc5c(cc4F)CCOC5c4ccccc4C(F)(F)F)ncc3[C@@H]21 (single isomer, unassigned) [Example 60]             EC50              nM           10.8
2  O=C(O)[C@H]1[C@@H]2Cc3cc(OCc4cc5c(ccn5Cc5ccccc5C(F)(F)F)cc4F)ncc3[C@@H]21 [Example 78]             EC50              nM            195

(I) O=C(O)[C@H]1[C@@H]2Cc3cc(OCc4cc5c(cc4F)C(F)(F)CC5c4ccccc4C(F)(F)F)ncc3[C@@H]21 (single isomer, unassigned) [Example 70]
(II) O=C(O)[C@H]1[C@@H]2Cc3cc(OCc4cc5c(cc4F)C(F)(F)CC5c4ccccc4C(F)(F)F)ncc3[C@@H]21 (single isomer, unassigned) [Example 69]
Input line: Please tell me which of the two, I or II , has the higher reported EC50 value. Write down the label of the entry you select.
Output line: I
(I: 15.8 nM, II: 8.85 nM)

====

Molecular target: Human GPR40 (Homo sapiens)
Assay: Inositol Phosphate Turnover (IP1) Assay
Type: cell-based
Design: expressed in transfected cells; host or cells: HEK cells (stably expressing the aequorin reporter)
Conditions: HEK cells stably expressing human GPR40, CisBio IP-One kit
measurementKind: EC50 (µM)

compound	EC50 (µM)
COc1ncccc1C1CC(C)(C)c2ccc(COc3cc4c(cn3)[C@H]3[C@@H](C4)[C@@H]3C(=O)O)cc21 (stereo partly drawn) [Example 14]	0.0218

(P) CC1(C)CNC(c2ccccc2C(F)(F)F)c2cc(COc3cc4c(cn3)[C@H]3[C@@H](C4)[C@@H]3C(=O)O)c(F)cc21 (single isomer, unassigned) [Example 72]
(Q) O=C(O)[C@H]1[C@@H]2Cc3cc(OCc4ccc5c(c4)C(c4ccccc4C(F)(F)F)CC54COC4)ncc3[C@@H]21 (stereo partly drawn) [Example 7]
Input line: Please tell me which of the two, P or Q , has the higher reported EC50 value. Write down the label of the entry you select.
Output line: Q

====

Molecular target: Human GPR40 (Homo sapiens)
Assay: FLIPR assay, agonist-induced calcium mobilization
Type: cell-based
Set-up: expressed in transfected cells
Conditions: GPR40/CHO NFAT BLA cells
measurementKind: EC50 (nM)

Consider the worked cases shown below.
>>> df
                                   compound  unitannotation  valuemeasured
0  CC1(C)CC(c2ccccc2F)c2cc(COc3cc4c(cn3)[C@H]3[C@@H](C4)[C@@H]3C(=O)O)ccc21 (some centres unmarked)              nM           21.7
1  O=C(O)[C@H]1[C@@H]2Cc3cc(OCc4ccc5c(c4)N(c4ccccc4)CCO5)ncc3[C@@H]21              nM           40.5
2  CC1(C)CC(c2ccncc2C(F)(F)F)c2cc(COc3cc4c(cn3)[C@H]3[C@@H](C4)[C@@H]3C(=O)O)c(F)cc21 (some centres unmarked)              nM           6.92
3  O=C(O)[C@H]1[C@@H]2Cc3cc(OCc4ccc5c(c4)N(c4ccccc4)CCC5)ccc3[C@@H]21              nM           9.77
4  O=C(O)[C@H]1[C@@H]2Cc3cc(OCc4ccc5c(c4)C(c4ccccc4C(F)(F)F)CCO5)ncc3[C@@H]21 (some centres unmarked)              nM           77.8
5  O=C(O)[C@H]1[C@@H]2Cc3cc(OCc4ccc5c(c4)C(c4ccccc4C(F)(F)F)CC54CC4)ncc3[C@@H]21 (some centres unmarked)              nM           32.6
6  CC1=C(c2ccccc2C(F)(F)F)c2cc(COc3cc4c(cn3)[C@H]3[C@@H](C4)[C@@H]3C(=O)O)ccc2CC1              nM           11.4
7  COc1ncccc1C1CC(C)(C)c2ccc(COc3cc4c(cn3)[C@H]3[C@@H](C4)[C@@H]3C(=O)O)cc21 (some centres unmarked)              nM           11.6

(P) Cc1nc(OCCC(C)(C)O)ccc1C1CCCc2ccc(COc3cc4c(cn3)[C@H]3[C@@H](C4)[C@@H]3C(=O)O)cc21 (some centres unmarked)
(Q) CC1(C)CNC(c2ccccc2C(F)(F)F)c2cc(COc3cc4c(cn3)[C@H]3[C@@H](C4)[C@@H]3C(=O)O)c(F)cc21 (single isomer, unassigned)
Input line: When the recorded EC50 values are compared, which is smaller: that of P or that of Q ? Write down the label of the entry you select.
Output line: Q

// data source = patent US10000454B2
